# PROTOCOL DESCRIPTION: qHTS assay to identify small molecule antagonists of the estrogen receptor alpha (ER-alpha) signaling pathway using the BG1 cell line (AID 743080);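 note: BG1 cells stimulated with 17beta-estradiol alongside compound; nearly all actives have a fitted effect of over 25% in size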
# SETTINGS: BG1Luc4E2 ERE-luciferase antagonist mode, luminescence; series mostly up to 70.3 µM
Inconclusive results are not listed. Calls of active or inactive are those of the source. Calls come from the whole dose curve.
RECORDED ENDPOINT: outcome

Study these solved cases before continuing.
COMPOUND	outcome
C=CC(=O)[O-].C=CC(=O)[O-].[Zn+2]	inactive
CCC(=O)C1CC(C(C)C)CC=C1C (configuration not stated)	inactive
C1C[C@@H]2[C@H]3CC[C@H](C3)[C@@H]2C1	inactive
O=C1NC(=O)c2cc([N+](=O)[O-])ccc21	inactive
Oc1ccc(Cl)c2cccnc12	inactive

State its outcome: CC(O)c1ccccc1 (configuration not stated)
inactive

State its outcome: CN1CCCC(n2nc(Cc3ccc(Cl)cc3)c3ccccc3c2=O)CC1 (configuration not stated)
inactive
